Where these numbers come from: ChEMBL document CHEMBL3259810

# MEASUREMENT_TARGET: Nuclear factor NF-kappa-B complex (Homo sapiens, UniProt P19838+Q00653+Q04206)
# Sequence (P19838 1-433 limits assumed): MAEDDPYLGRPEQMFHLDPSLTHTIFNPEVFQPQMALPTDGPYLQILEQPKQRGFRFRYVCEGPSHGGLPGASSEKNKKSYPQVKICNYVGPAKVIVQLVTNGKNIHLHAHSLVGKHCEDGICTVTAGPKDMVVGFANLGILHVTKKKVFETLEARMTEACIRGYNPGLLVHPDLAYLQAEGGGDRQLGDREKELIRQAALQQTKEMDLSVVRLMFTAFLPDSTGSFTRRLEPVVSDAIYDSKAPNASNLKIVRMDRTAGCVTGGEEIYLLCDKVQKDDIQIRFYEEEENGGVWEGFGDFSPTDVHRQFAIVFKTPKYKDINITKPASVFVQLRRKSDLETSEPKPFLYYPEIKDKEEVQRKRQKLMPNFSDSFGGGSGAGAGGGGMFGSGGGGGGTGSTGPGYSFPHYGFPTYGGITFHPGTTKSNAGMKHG
# Sequence (Q00653 1-454 limits assumed): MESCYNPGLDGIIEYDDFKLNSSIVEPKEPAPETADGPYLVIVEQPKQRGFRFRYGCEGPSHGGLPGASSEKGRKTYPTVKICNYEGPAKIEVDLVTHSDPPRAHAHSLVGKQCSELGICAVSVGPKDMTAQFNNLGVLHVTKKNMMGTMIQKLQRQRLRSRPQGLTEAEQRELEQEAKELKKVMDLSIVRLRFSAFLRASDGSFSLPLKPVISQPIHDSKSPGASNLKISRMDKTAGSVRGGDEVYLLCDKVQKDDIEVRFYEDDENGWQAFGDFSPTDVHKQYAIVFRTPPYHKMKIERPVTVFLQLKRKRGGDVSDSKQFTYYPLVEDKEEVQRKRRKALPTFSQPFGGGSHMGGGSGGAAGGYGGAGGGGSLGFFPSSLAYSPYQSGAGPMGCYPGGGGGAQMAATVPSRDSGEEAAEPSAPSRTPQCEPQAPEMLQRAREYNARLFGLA
# Sequence (Q04206 whole entry): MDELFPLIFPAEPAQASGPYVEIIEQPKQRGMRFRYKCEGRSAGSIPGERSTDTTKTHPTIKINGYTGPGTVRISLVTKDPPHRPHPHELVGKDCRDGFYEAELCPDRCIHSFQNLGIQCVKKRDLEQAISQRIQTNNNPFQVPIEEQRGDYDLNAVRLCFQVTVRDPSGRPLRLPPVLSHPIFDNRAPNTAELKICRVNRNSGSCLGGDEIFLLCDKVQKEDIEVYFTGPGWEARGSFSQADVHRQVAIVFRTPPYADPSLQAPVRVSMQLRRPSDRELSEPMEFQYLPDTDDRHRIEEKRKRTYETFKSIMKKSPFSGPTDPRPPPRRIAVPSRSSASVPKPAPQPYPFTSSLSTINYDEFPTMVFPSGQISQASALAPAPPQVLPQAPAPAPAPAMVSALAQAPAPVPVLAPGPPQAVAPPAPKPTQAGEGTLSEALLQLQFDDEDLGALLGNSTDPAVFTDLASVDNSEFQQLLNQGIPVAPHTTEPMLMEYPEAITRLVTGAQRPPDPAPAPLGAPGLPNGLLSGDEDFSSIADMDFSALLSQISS
# PROTOCOL: Inhibition of transcriptional activity of NF-kappaB (unknown origin) transfected in LPS-stimulated mouse RAW264.7 cells after 16 hrs by secretory alkaline phosphatase reporter gene assay
# Assay type: cell-based

[
  {
    "MOLECULE": "CC(C)CNCC1CCc2ccc3ccccc3c2O1 (stereo not given)",
    "IC50": "27.1 µM"
  },
  {
    "MOLECULE": "O=C(Nc1ccc(C(F)(F)F)cc1)C1CCc2ccc3ccccc3c2O1 (stereo not given)",
    "IC50": "12.9 µM"
  },
  {
    "MOLECULE": "CC(C)CCNCC1CCc2ccc3ccccc3c2O1 (stereo not given)",
    "IC50": "25.9 µM"
  },
  {
    "MOLECULE": "COc1ccc(NC(=O)C2CCc3ccc4ccccc4c3O2)cc1 (stereo not given)",
    "IC50": "12.9 µM"
  },
  {
    "MOLECULE": "S=C(S)N1CCCC1 [PYRROLIDINE DITHIOCARBAMATE]",
    "IC50": "37.2 µM"
  },
  {
    "MOLECULE": "COc1cc2c(cc1O)CCC(C(=O)Nc1ccccc1)O2 (stereo not given)",
    "IC50": "40.1 µM"
  },
  {
    "MOLECULE": "O=C(NCC1CCc2ccc3ccccc3c2O1)c1ccccc1 (stereo not given)",
    "IC50": "48.6 µM"
  },
  {
    "MOLECULE": "O=C(Nc1ccccc1C(F)(F)F)C1CCc2ccc3ccccc3c2O1 (stereo not given)",
    "IC50": "2.4 µM"
  },
  {
    "MOLECULE": "O=C(Nc1cccc(Cl)c1)C1CCc2ccc3ccccc3c2O1 (stereo not given)",
    "IC50": "27.9 µM"
  },
  {
    "MOLECULE": "O=C(Nc1ccc(Cl)cc1)C1CCc2ccc3ccccc3c2O1 (stereo not given)",
    "IC50": "5.8 µM"
  },
  {
    "MOLECULE": "O=C(Nc1ccc(O)cc1)C1CCc2ccc3ccccc3c2O1 (stereo not given)",
    "IC50": "5 µM"
  },
  {
    "MOLECULE": "c1ccc(CNCC2CCc3ccc4ccccc4c3O2)cc1 (stereo not given)",
    "IC50": "14.6 µM"
  },
  {
    "MOLECULE": "Clc1ccc(NCC2CCc3ccc4ccccc4c3O2)cc1 (stereo not given)",
    "IC50": "26.5 µM"
  },
  {
    "MOLECULE": "O=C(Nc1cc(C(F)(F)F)cc(C(F)(F)F)c1)C1CCc2ccc3ccccc3c2O1 (stereo not given)",
    "IC50": "63.8 µM"
  },
  {
    "MOLECULE": "O=C(Nc1ccccc1)C1CCc2ccc3ccccc3c2O1 (stereo not given)",
    "IC50": "43.5 µM"
  },
  {
    "MOLECULE": "FC(F)(F)c1cc(NCC2CCc3ccc4ccccc4c3O2)cc(C(F)(F)F)c1 (stereo not given)",
    "IC50": "56.3 µM"
  },
  {
    "MOLECULE": "CC(C)CC(=O)NCC1CCc2ccc3ccccc3c2O1 (stereo not given)",
    "IC50": "56.3 µM"
  },
  {
    "MOLECULE": "COc1ccc(NCC2CCc3ccc4ccccc4c3O2)cc1 (stereo not given)",
    "IC50": "44.5 µM"
  },
  {
    "MOLECULE": "O=C(Nc1cc(Cl)cc(Cl)c1)C1CCc2ccc3ccccc3c2O1 (stereo not given)",
    "IC50": "96.7 µM"
  },
  {
    "MOLECULE": "O=C(Nc1ccccc1O)C1CCc2ccc3ccccc3c2O1 (stereo not given)",
    "IC50": "12.3 µM"
  }
]
